- target or system: CCR2 (Homo sapiens, UniProt P41597)
- Construct: endogenous in cells; host or cells: THP-1
- Sequence (P41597 1-360 isoform P41597-2): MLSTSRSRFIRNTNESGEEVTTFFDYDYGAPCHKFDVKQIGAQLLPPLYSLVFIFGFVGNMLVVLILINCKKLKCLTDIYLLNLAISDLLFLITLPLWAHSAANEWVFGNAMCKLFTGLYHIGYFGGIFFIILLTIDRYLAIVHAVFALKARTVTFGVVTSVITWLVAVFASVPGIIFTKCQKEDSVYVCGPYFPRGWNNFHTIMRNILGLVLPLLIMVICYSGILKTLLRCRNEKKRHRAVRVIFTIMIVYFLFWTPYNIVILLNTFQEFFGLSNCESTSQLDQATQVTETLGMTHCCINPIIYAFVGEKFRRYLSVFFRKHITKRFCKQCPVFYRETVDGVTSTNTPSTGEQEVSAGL
- test method notes: CCR2 inhibitory potency assay, calcium flux method, THP-1 cells stimulated with 100 nM CCL2
- Assay type: cell-based
- experimental parameters: Table 3; CCR2 inhibition; read-out: mean IC50
Where no end group is shown, it is not given here.
For each record, check the reported IC50: if it is below 30 nM write Y, else write N.

[
  {
    "substance": "CCL2 variant, N-terminal TPGYLKAPVT (SEQ ID NO: 19), human CCL2 Met64Nle core [CCL2-M64Nle-NGS-MEO-5]",
    "target or system": "CCR2 (Homo sapiens, UniProt P41597)",
    "assigned label": "Y"
  },
  {
    "substance": "CCL2 variant, N-terminal SPSYTRAPVT (SEQ ID NO: 31), human CCL2 Met64Nle core [CCL2-M64Nle-2P7]",
    "target or system": "CCR2 (Homo sapiens, UniProt P41597)",
    "assigned label": "N"
  },
  {
    "substance": "CCL2 variant, N-terminal FP(Nle)DGWAPVT (SEQ ID NO: 10), human CCL2 Met64Nle core [CCL2-M64Nle-2P6]",
    "target or system": "CCR2 (Homo sapiens, UniProt P41597)",
    "assigned label": "Y"
  },
  {
    "substance": "CCL2 variant, N-terminal ISWFTFNAPVT (SEQ ID NO: 22), human CCL2 Met64Nle core [CCL2-M64Nle-1P13]",
    "target or system": "CCR2 (Homo sapiens, UniProt P41597)",
    "assigned label": "N"
  },
  {
    "substance": "CCL2-M64Nle-NGS-MESR-1 (SYSWVR; also: part of CCL2 M64Nle construct, placement of chain in protein not given here)",
    "target or system": "CCR2 (Homo sapiens, UniProt P41597)",
    "assigned label": "N"
  },
  {
    "substance": "CCL2 variant, N-terminal VTNPTWAPVT (SEQ ID NO: 20), human CCL2 Met64Nle core [CCL2-M64Nle-1P02-F1V]",
    "target or system": "CCR2 (Homo sapiens, UniProt P41597)",
    "assigned label": "Y"
  },
  {
    "substance": "CCL2 variant, N-terminal MYGLGWNAPVT (SEQ ID NO: 23), human CCL2 Met64Nle core [CCL2-M64Nle-1P19]",
    "target or system": "CCR2 (Homo sapiens, UniProt P41597)",
    "assigned label": "N"
  },
  {
    "substance": "CCL2 variant, N-terminal TPGHYRAPVT (SEQ ID NO: 39), human CCL2 Met64Nle core [CCL2-M64Nle-2P3]",
    "target or system": "CCR2 (Homo sapiens, UniProt P41597)",
    "assigned label": "N"
  },
  {
    "substance": "CCL2 variant, N-terminal AFSIMQAPVT (SEQ ID NO: 15), human CCL2 Met64Nle core [CCL2-M64Nle-1P8]",
    "target or system": "CCR2 (Homo sapiens, UniProt P41597)",
    "assigned label": "Y"
  },
  {
    "substance": "CCL2 variant, N-terminal APQWAAAT, positions 1-2 absent (SEQ ID NO: 32), human CCL2 Met64Nle core [CCL2-M64Nle-2P1]",
    "target or system": "CCR2 (Homo sapiens, UniProt P41597)",
    "assigned label": "N"
  },
  {
    "substance": "CCL2-M64Nle-NGS-MESR-5 (AWGGIR; also: part of CCL2 M64Nle construct, placement of chain in protein not given here)",
    "target or system": "CCR2 (Homo sapiens, UniProt P41597)",
    "assigned label": "N"
  },
  {
    "substance": "CCL2 variant, N-terminal WRPHWSAPVT (SEQ ID NO: 25), human CCL2 Met64Nle core [CCL2-M64Nle-1P3]",
    "target or system": "CCR2 (Homo sapiens, UniProt P41597)",
    "assigned label": "N"
  },
  {
    "substance": "CCL2 variant, N-terminal (Nle)PDWNRAPVT (SEQ ID NO: 35), human CCL2 Met64Nle core [CCL2-M64Nle-NGS-MEO-1]",
    "target or system": "CCR2 (Homo sapiens, UniProt P41597)",
    "assigned label": "N"
  },
  {
    "substance": "CCL2 variant, N-terminal WYTVGWNAPVT (SEQ ID NO: 21), human CCL2 Met64Nle core [CCL2-M64Nle-1P16]",
    "target or system": "CCR2 (Homo sapiens, UniProt P41597)",
    "assigned label": "Y"
  },
  {
    "substance": "CCL2 variant, N-terminal WVLSSLNAPVT (SEQ ID NO: 17), human CCL2 Met64Nle core [CCL2-M64Nle-1P5]",
    "target or system": "CCR2 (Homo sapiens, UniProt P41597)",
    "assigned label": "Y"
  },
  {
    "substance": "CCL2 variant, N-terminal IYGVGWNAPVT (SEQ ID NO: 14), human CCL2 Met64Nle core [CCL2-M64Nle-1P14]",
    "target or system": "CCR2 (Homo sapiens, UniProt P41597)",
    "assigned label": "Y"
  },
  {
    "substance": "CCL2 variant, N-terminal VPDWSQAPVT (SEQ ID NO: 18), human CCL2 Met64Nle core [CCL2-M64Nle-1P22]",
    "target or system": "CCR2 (Homo sapiens, UniProt P41597)",
    "assigned label": "Y"
  },
  {
    "substance": "CCL2 variant, N-terminal RPYLWKAPVT (SEQ ID NO: 12), human CCL2 Met64Nle core [CCL2-M64Nle-2P5]",
    "target or system": "CCR2 (Homo sapiens, UniProt P41597)",
    "assigned label": "Y"
  }
]
